Tested on: OVCAR-5 ovarian
assay_procedure: NCI-60 one-dose screen, 48 h (100 = growth as untreated, 0 = no growth, -100 = all killed)
condition_label: 10 µM
Compounds without any hit were thinned out: in the full panel of roughly 83,000, 20% have a hit.
Form field: growth (one value per entry).
Number only, in %; omit the unit.

> print(dat)
                                   compound  endpoint.result
1      CCCC[P+](c1ccccc1)(c1ccccc1)c1ccccc1             62.6
2  O=[N+]([O-])c1ccc(-c2noc(-c3cccs3)n2)cc1             98.5
3                                     NCCCN              107
4  CC(=O)OC1CC2C(C)(C)OC3CC(=O)OCC32C2CCC3(C)C(=CCC3c3ccoc3)C12C (centres undefined)             95.9
5  CC(=O)OCC1=CC2OC(=O)C3=COC(OC4OC(CO)C(O)C(O)C4O)C1C32 (centres undefined)              111

Q. For the compound shown here, CC1(C)S(=O)(=O)OCCOS1(=O)=O , give the reported growth.
A. 110

Q. Can you share its growth? I mean this compound: N#CCCc1ccc(O)cc1
A. 95.6

Q. # lookup: growth of CC12CC3CC1C(C(=O)O2)C3C(=O)O (centres undefined)
A. 97.8

Q. Need growth of O=C(O)/C=C/c1ccc2c(c1)CCC2 , thanks.
A. 97.8

====

growth: recorded values
Tested on: M14 melanoma
assay_procedure: NCI-60 one-dose screen, 48 h (100 = growth as untreated, 0 = no growth, -100 = all killed)
condition_label: 10 µM
The panel holds about 83,000 compounds, 20% with a hit somewhere; the sample as a whole holds those more often.
Give just the number in %; leave the unit off.

Q. Reported growth for M14 melanoma, given CCOC(=O)C(C#N)Cc1ccccc1 (stereo not drawn) ?
A. 108

====

Tested on: SF-539 CNS
assay_procedure: NCI-60 one-dose screen, 48 h (100 = growth as untreated, 0 = no growth, -100 = all killed)
condition_label: 10 µM
The panel holds about 83,000 compounds, 20% with a hit somewhere; the sample as a whole holds those more often.
Parameter growth: see the listing below.
Numeric answer only, unit % assumed.

Recorded growth, per entry:
> print(dat)
                                   compound  reading.unit  endpoint.result
1  CC1CCCCN1C(=S)Nc1ccc(S(=O)(=O)N2CCCCC2)cc1 (configuration not stated)             %             96.9
2            COC(=O)/C=C1\Sc2cc(F)ccc2NC1=O             %              104
3                 Cc1cc(N)ccc1-c1ccc(N)cc1C             %             93.8
4                  CC(=O)c1ccc(C(C)(C)C)cc1             %             94.3
5                           O=C(O)COCC(=O)O             %              104
6  COc1nc(N)nc2c1ncn2C1OC(CO)CC1O (configuration not stated)             %             45.6

Continue with the next compound.
Q. Please state recorded growth (tested on SF-539 CNS) of NC(=O)c1ccc(N=C(N)N=C(N)N)cc1
A. 96.8

====

Reported growth is given for each of the following molecules.
Test system: NCI-H460 lung
assay_procedure: NCI-60 one-dose screen, 48 h (100 = growth as untreated, 0 = no growth, -100 = all killed)
condition_label: 10 µM
The panel holds about 83,000 compounds, 20% with a hit somewhere; the sample as a whole holds those more often.
The reply should contain only the number, in %.

Some molecules with recorded growth:
> print(dat)
                             molecule.smiles  measured.attribute  endpoint.result
 1                          COc1ncnc2c1cnn2C              growth              106
 2             CC1(C)OC(=O)C(c2ccsc2)C(=O)O1              growth              113
 3  CC(=O)Nc1ccc(NC(C)=O)c2c1C(=O)c1ccccc1C2=O              growth              102
 4                                     NCCCN              growth              108
 5                           CCS(=O)(=O)CCCl              growth              109
 6             Cc1cc(=O)n(-c2ccc(F)cc2)[nH]1              growth              106
 7                        O=c1[nH]cc(Cl)cc1O              growth             94.1
 8                 CCCCCC(C)(CC(=O)O)CC(=O)O              growth              108
 9                     Nc1ccc(CC(=O)O)c(N)c1              growth              103
10            CC(C)(C)c1cc(O)c(C(C)(C)C)cc1O              growth             96.3

Let's switch to this molecule now.
Q. Reported growth for NCI-H460 lung, given Nc1ccc(C(=O)c2ccc(N)c(Br)c2)cc1Br ?
A. -0.543

====

growth overview
Tested on: HCT-15 colon
assay_procedure: NCI-60 one-dose screen, 48 h (100 = growth as untreated, 0 = no growth, -100 = all killed)
condition_label: 10 µM
Compounds without any hit were thinned out: in the full panel of roughly 83,000, 20% have a hit.
Give just the numeric value; % need not be written.

> print(dat)
                           compound  endpoint.result
1  CC(=O)N(C)c1ccc([N+](=O)[O-])cc1              102

Now look at this one.
Q. Reported growth, compound CCC(C)(C)C1CCC(O)CC1 (stereo not drawn) : ____
A. 88.9

====

System: SNB-19 CNS
assay_procedure: NCI-60 one-dose screen, 48 h
condition_label: 10 µM
The panel holds about 83,000 compounds, 20% with a hit somewhere; the sample as a whole holds those more often. Active and inactive are the calls of the source. The calls were made as follows: active = growth percent below 10; inactive = the rest.
Outcome (select one): active, inactive

Some solved cases for reference:
> print(dat)
                          compound  system.name     group
1                         CCCCCCCO   SNB-19 CNS  inactive
2  O=c1cc(-c2ccccc2)[nH]c(=S)[nH]1   SNB-19 CNS  inactive
3                  C=CCNc1nnc(C)s1   SNB-19 CNS  inactive

Lab note: next compound to report on.
Q. Which outcome was entered for the compound CCCCCCCCCCCCCCCCC1CC(=O)OC1=O (stereo not drawn) in this test?
A. inactive

====

Listing of recorded growth by entry.
System: SF-295 CNS
assay_procedure: NCI-60 one-dose screen, 48 h (100 = growth as untreated, 0 = no growth, -100 = all killed)
condition_label: 10 µM
Protocol: Cells are grown in 96 well plates and exposed to the test compound for 48 hours. Compounds are tested at a single concentration, which is 10^-5 M for most compounds. The reported endpoint is percent growth (GI% or GIPRCNT), where numbers from 0 - 100% represent growth inhibition, and numbers from -100% - 0 represent cell death. For example, a value of 40 represents 60% growth inhibition. A value of 0 means no net growth occurred over the course of the experiment. […]
This is part of a sample that, as a whole, favours compounds with a hit. Of some 83,000 tested, about 20% had one in any assay.
The reply should contain only the number, in %.

Example cases with answers are listed next.
> print(dat)
                                   molecule  endpoint.result
1  OC(c1ccccn1)C(O)c1ccccn1 (stereo not drawn)              118
2               O=C(c1ccc(Cl)cc1)c1ccccc1Cl             92.3
3         CN(C)Cc1cc(C(C)(C)CC(C)(C)C)ccc1O             95.6

Q. I'd like to know its growth. The molecule in question is c1ccc(/C(=N\N=C(/c2ccccc2)c2cccs2)c2cccs2)cc1
A. 95.8

Q. Endpoint output: growth of C#CCSc1nnnn1-c1ccc(Br)c(C)c1 . Value?
A. 103

Q. Reported growth, molecule CN(C)c1ccc(CNC(C(=O)c2ccccc2)c2ccccc2)cc1 (stereo not drawn) : ____
A. 98.1

Q. What value of growth has been recorded for this entry: CNS(=O)(=O)c1ccc(Cl)c(Cl)c1
A. 101

Q. Need growth, item C/C(=N/NC(N)=O)c1ccco1
A. 104
